- Target Of Assay: T1, extracellular domain of human CD79b (human, UniProt P40259 29-159)
- T1 construct: also called huCD79becd; huCD79b-ecd
- T1 sequence: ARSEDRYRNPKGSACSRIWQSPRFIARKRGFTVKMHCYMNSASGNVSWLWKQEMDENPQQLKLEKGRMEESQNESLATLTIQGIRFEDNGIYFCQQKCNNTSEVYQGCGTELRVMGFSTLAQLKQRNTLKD
- Assay Comment: phage selection, Fab on phage, plate-bound huCD79becd
Outcome Measure: binding result

# Binder, Outcome Measure, Experimental Result
records = [
    ("huMA79b graft variant SEQ ID NO: 100 (Fab, name in Kabat numbering, V domains shown, Fab on phage; rest as huMA79b graft) VH: EVQLVESGGGLVQPGGSLRLSCAASGYTFSSYWIEWVRQAPGKGLEWVGEILPGGGDTNYNEIFKGRFTISADTSKNTAYLQMNSLRAEDTAVYYCTRRVPVRLDYWGQGTLVTVSS VL: DIQMTQSPSSLSASVGDRVTITCKASQSVDYDGDSFLNWYQQKPGKAPKLLIYAASNLESGVPSRFSGSGSGTDFTLTISSLQPEDFATYYCQQSNEDPLTFGQGTKVEIKR", "binding result", "binds"),
    ("huMA79b graft variant SEQ ID NO: 33 (Fab, name in Kabat numbering, V domains shown, Fab on phage; rest as huMA79b graft) VH: EVQLVESGGGLVQPGGSLRLSCAASGYTFSSYWIEWVRQAPGKGLEWVGEILPGGGDTNYNEIFKGRFTISADTSKNTAYLQMNSLRAEDTAVYYCTRRVPVYFDYWGQGTLVTVSS VL: DIQMTQSPSSLSASVGDRVTITCKASQSVDYDGDSFLNWYQQKPGKAPKLLIYASRYLSRGVPSRFSGSGSGTDFTLTISSLQPEDFATYYCQQSNEDPLTFGQGTKVEIKR", "binding result", "binds"),
    ("huMA79b graft variant SEQ ID NO: 59 (Fab, name in Kabat numbering, V domains shown, Fab on phage; rest as huMA79b graft) VH: EVQLVESGGGLVQPGGSLRLSCAASGYSFKSYWIEWVRQAPGKGLEWVGEILPGGGDTNYNEIFKGRFTISADTSKNTAYLQMNSLRAEDTAVYYCTRRVPVYFDYWGQGTLVTVSS VL: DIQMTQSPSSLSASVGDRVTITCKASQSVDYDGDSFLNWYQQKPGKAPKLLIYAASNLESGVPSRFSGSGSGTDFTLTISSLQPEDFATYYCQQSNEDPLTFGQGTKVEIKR", "binding result", "binds"),
]
